The measurements presented in this section are drawn from ChEMBL document CHEMBL3352057.

System: Rattus norvegicus
Measurement description: Neurotoxicity in MES Sprague-Dawley rat model at 30 mg/kg, ip measured after 0.5 hr
Format: toxicity, organism-based
Set-up: dose 30 mg/kg, route intraperitoneal
Test context: in vivo
Observable: Activity

Recorded results for 6 compounds are shown here.
For O=C1NC(=O)[C@@H]2CCCN2[C@H]1c1ccccc1F the compound record lists Activity as Non-toxic

Reported Activity of Cl.O=C1NC(=O)[C@@H]2CCCN2[C@H]1c1cccc(C(F)(F)F)c1 : Non-toxic

compound O=C1NC(=O)[C@@H]2CCCN2[C@H]1c1cccc(OC(F)(F)F)c1 , Activity observed: Non-toxic

Sample O=C1NC(=O)[C@@H]2CCCN2[C@H]1c1ccc(C(F)(F)F)cc1 ; Activity observed: Non-toxic

The value of Activity measured for the compound Cl.O=C1NC(=O)[C@@H]2C[C@@H](O)CN2C1c1cccc(C(F)(F)F)c1 (mixture of isomers) turned out to be Non-toxic

get_value(item= O=C1NC(=O)[C@@H](c2cccc(C(F)(F)F)c2)N2CCCC[C@H]12 , readout=Activity) returns Non-toxic

// moving on: another record for Activity
Measured Activity, O=C1NC(=O)[C@@H]2CCCCN2[C@H]1c1cccc(C(F)(F)F)c1 : Non-toxic
